- Test system: picornaviruses (CVB1, HRV-A2, HRV-A23, EV-68)
- Experiment notes: Anti-picornavirus cytopathic effect (CPE) reduction assay on HeLa H1 cells
- Type: cell-based
- Test conditions: Enterovirus B, HeLa H1, 48 h, HeLa H1 cells, 48 h, category from averaging the EC50 values from four picornaviruses (CVB1, HRV-A2, HRV-A23, EV68); read-out: EC50 values of the compounds determined in the anti-picornavirus assay
pEC50: −log10 of the molar value.
# maps each entry to its pEC50

Compound	pEC50
O=C(NC1CCN(S(=O)(=O)C2CCCC2)CC1)C(=O)[C@H]1CCC(=O)N1Cc1ccccc1	> 6.00
CC(=O)NCCOCCOCCNC(=O)C(=O)C1CCC(=O)N1Cc1ccc(Cl)cc1 (stereo not shown)	< 5.00
O=C(NCC1CC1)C(=O)C1CCC(=O)N1Cc1ccccc1 (stereo not shown)	> 6.00
C[C@H](CO)NC(=O)C(=O)C1CCC(=O)N1Cc1ccc(Cl)cc1 (stereo partly shown)	5.00 to 6.00
COc1ccccc1N(C=O)C(C)C(=O)C(=O)NC(C)(C)c1cccc(Cl)c1 (stereo not shown)	> 6.00
COc1ccccc1N(C=O)C(C)C(=O)C(=O)NCC1CCCCC1 (stereo not shown)	> 6.00
CC(C(=O)C(=O)NCC1CC1)N(C=O)CC1CCN(C(=O)OC(C)(C)C)CC1 (stereo not shown)	< 5.00
COc1ccccc1N(C=O)C(C(=O)C(=O)NCc1cccc(Cl)c1)C(C)C (stereo not shown)	5.00 to 6.00
CC(=O)NCCCCCCNC(=O)C(=O)C1CCC(=O)N1Cc1ccccc1 (stereo not shown)	5.00 to 6.00
CC(C(=O)C(=O)NCC1CCCCC1)N(C=O)CC1CCOCC1 (stereo not shown)	> 6.00
CC(C(=O)C(=O)NCc1cccc(Cl)c1)N(C=O)C1CCOCC1 (stereo not shown)	5.00 to 6.00
COc1ccccc1N(C=O)C(C)C(=O)C(=O)NCc1ccccn1 (stereo not shown)	< 5.00
O=CN(Cc1ccccc1)[C@@H](Cc1cn(C(c2ccccc2)(c2ccccc2)c2ccccc2)cn1)C(=O)C(=O)NCC1CCCCC1	> 6.00
COC(=O)N(CC1CCOCC1)C(C)C(=O)C(=O)NCC(C)C (stereo not shown)	< 5.00
CC(OCC1CCOCC1)C(=O)C(=O)NCC1CCC1 (stereo not shown)	> 6.00
Cc1ccc(CN2C(=O)CCC2C(=O)C(=O)NC2CC2)cc1 (stereo not shown)	> 6.00
O=C(NC1CC1)C(=O)C1CCC(=O)N1Cc1ccc(F)cc1 (stereo not shown)	5.00 to 6.00
O=C(N[C@@H]1C[C@@H]1F)C(=O)[C@H]1CCC(=O)N1Cc1ccccc1	> 6.00
CCC(NC(=O)c1cccnc1)C(=O)C(=O)NCC1CCCCC1 (stereo not shown)	5.00 to 6.00

----------
- System: picornaviruses (CVB1, HRV-A2, HRV-A23, EV-68)
- Experiment notes: Anti-picornavirus cytopathic effect (CPE) reduction assay on HeLa H1 cells
- Type: cell-based
- Test conditions: Enterovirus B, HeLa H1, 48 h, HeLa H1 cells, 48 h, category from averaging the EC50 values from four picornaviruses (CVB1, HRV-A2, HRV-A23, EV68); read-out: EC50 values of the compounds determined in the anti-picornavirus assay
# maps each entry to its EC50

Compound	EC50
COc1ccccc1N(C(=O)C(C)C)C(C)C(=O)C(=O)NCc1cccc(Cl)c1 (stereo not shown)	1000 to 10000 nM
CC(NC(=O)Cc1ccccc1)C(=O)C(=O)NCC1CC1 (stereo not shown)	> 10000 nM
CC(F)(F)CNC(=O)C(=O)[C@H]1CCC(=O)N1Cc1ccccc1	< 1000 nM
CC(C(=O)C(=O)NCC1CC1)N(C=O)CC1CCN(C(=O)C2CCCCC2)CC1 (stereo not shown)	> 10000 nM
COc1ccccc1N(C=O)C(C)C(=O)C(=O)NCC(C)C (stereo not shown)	1000 to 10000 nM
CC(C)CC(C(=O)C(=O)NCC1CC1)N(C=O)CC1CC1 (stereo not shown)	< 1000 nM
COc1ccccc1N(C=O)C(C)C(=O)C(=O)NCCc1cccc(Cl)c1 (stereo not shown)	< 1000 nM
CC(=O)NCCCCCCCNC(=O)C(=O)C1CCC(=O)N1Cc1ccccc1 (stereo not shown)	1000 to 10000 nM
CC(C(=O)C(=O)NCC1CC1)N(C)S(=O)(=O)c1ccccc1 (stereo not shown)	> 10000 nM
COc1ccc(F)cc1N(C=O)C(C)C(=O)C(=O)NCc1cccc(Cl)c1 (stereo not shown)	< 1000 nM
